Each entry below carries its reported IC50.
Molecular target: T1, recombinant human IL-12 (rhIL-12) (human, UniProt P29459 23-219; P29460 23-328)
T1 construct: disulfide-linked p35/p40 heterodimer (p70); also called rec. human IL12; IL-12 p70
T1 sequence (looked up) 1: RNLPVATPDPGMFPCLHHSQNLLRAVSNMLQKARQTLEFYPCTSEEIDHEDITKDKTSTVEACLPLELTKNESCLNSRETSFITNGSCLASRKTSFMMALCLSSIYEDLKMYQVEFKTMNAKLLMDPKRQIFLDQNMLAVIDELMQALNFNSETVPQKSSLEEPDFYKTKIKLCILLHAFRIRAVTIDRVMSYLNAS
T1 sequence (looked up) 2: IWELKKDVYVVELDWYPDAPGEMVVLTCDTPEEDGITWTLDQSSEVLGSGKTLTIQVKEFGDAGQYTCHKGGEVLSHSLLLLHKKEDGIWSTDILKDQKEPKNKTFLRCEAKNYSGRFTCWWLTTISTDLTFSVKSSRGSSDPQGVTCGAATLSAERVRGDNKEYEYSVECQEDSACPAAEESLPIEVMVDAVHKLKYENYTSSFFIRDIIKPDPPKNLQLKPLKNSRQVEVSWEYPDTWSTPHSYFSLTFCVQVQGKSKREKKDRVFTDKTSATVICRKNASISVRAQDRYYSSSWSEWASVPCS
Experiment: RB assay: inhibition of 125I-hIL-12 binding to IL-12 receptors on PHA blasts
Reply numerically in nM, unit not repeated.

Looking up Y19 (scFv, V domains shown) VH: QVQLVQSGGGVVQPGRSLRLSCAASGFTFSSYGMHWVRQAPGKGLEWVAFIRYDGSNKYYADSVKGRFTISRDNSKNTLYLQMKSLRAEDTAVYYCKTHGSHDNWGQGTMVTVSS VL: SYVLTQPPSVSGTPGQRVTISCSGGRSNIGSNTVKWYQQLPGTAPKLLIYGNDQRPSGVPDRFSGSKSGTSASLAITGVQAEDEADYYCQSYDRGHHPAMSFGTGTKVTVLG , I found its IC50 recorded as 0.03

Looking up D9 (scFv, V domains shown) VH: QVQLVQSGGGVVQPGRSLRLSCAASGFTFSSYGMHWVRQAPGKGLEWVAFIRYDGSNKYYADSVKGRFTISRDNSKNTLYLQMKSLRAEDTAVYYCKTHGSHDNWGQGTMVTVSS VL: SYVLTQPPSVSGTPGQRVTISCSGGRSNIGSNTVKWYQQLPGTAPKLLIYGNDQRPSGVPDRFSGSKSGTSASLAITGVQAEDEADYYCQSYDRGRLPAQTFGTGTKVTVLG , I found its IC50 recorded as 3.5

Looking up Y55 (scFv, V domains shown) VH: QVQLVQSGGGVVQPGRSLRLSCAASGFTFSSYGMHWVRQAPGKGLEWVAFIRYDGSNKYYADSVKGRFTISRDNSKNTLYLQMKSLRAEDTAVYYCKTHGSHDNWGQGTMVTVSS VL: SYVLTQPPSVSGTPGQRVTISCSGGRSNIGSNTVKWYQQLPGTAPKLLIYGNDQRPSGVPDRFSGSKSGTSASLAITGVQAEDEADYYCQSYDRGTHFQMYFGTGTKVTVLG , I found its IC50 recorded as 0.14

Looking up Y61 (scFv, V domains shown, scFv; also called Y61 scFv) VH: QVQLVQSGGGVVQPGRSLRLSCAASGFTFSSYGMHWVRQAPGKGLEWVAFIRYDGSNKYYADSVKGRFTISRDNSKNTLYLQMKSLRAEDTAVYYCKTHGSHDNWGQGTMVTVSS VL: SYVLTQPPSVSGTPGQRVTISCSGGRSWIGSNTVKWYQQLPGTAPKLLIYGNDQRPSGVPDRFSGSKSGTSASLAITGVQAEDEADYYCQSYDRGTHPALLFGTGTKVTVLG , I found its IC50 recorded as 0.04
